test system: Escherichia coli TOP10; assay: shrunken log2 fold change of peptide-encoding DNA abundance (4.5 h post-induction vs induction); higher = less antimicrobial activity (less host growth inhibition); details: time post-induction: 4.5 h; library: site-saturation at positions 5, 18, 19, 20;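 note: peptides expressed intracellularly from a pBAD plasmid library in pooled LB shake-flask culture, induced with 0.3% L-arabinose, DNA abundance read by NGS, three biological replicates, DESeq2 with apeglm shrinkage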
Measured endpoint: shrunken log2 fold change
I only need the number, thanks.

Reference set (5 entries):
[
  {
    "Polymer sequence": "RRIRLRPPRLPRPRPRPAEEPRP",
    "Measured endpoint": "shrunken log2 fold change",
    "Numeric readout": 0.133
  },
  {
    "Polymer sequence": "RRIRFRPPRLPRPRPRPSIKPRP",
    "Measured endpoint": "shrunken log2 fold change",
    "Numeric readout": -0.42
  },
  {
    "Polymer sequence": "RRIRTRPPRLPRPRPRPCDLPRP",
    "Measured endpoint": "shrunken log2 fold change",
    "Numeric readout": 0.0183
  },
  {
    "Polymer sequence": "RRIRWRPPRLPRPRPRPTCGPRP",
    "Measured endpoint": "shrunken log2 fold change",
    "Numeric readout": 0.73
  },
  {
    "Polymer sequence": "RRIRRRPPRLPRPRPRPRENPRP",
    "Measured endpoint": "shrunken log2 fold change",
    "Numeric readout": 0.135
  }
]

Ask | What does the data say about its shrunken log2 fold change? Entry: RRIRPRPPRLPRPRPRPARNPRP
Reply | 0.328

Ask | Fill blank: measured shrunken log2 fold change of the sequence RRIRTRPPRLPRPRPRPDHKPRP is ____.
Reply | -0.117

Ask | Param item = RRIRKRPPRLPRPRPRPWHMPRP ; retrieve measured shrunken log2 fold change.
Reply | -0.00936

Ask | Value lookup for shrunken log2 fold change; key = RRIRTRPPRLPRPRPRPMMRPRP
Reply | 0.933

Ask | Tell me the measured shrunken log2 fold change of RRIRKRPPRLPRPRPRPNFHPRP , please.
Reply | 0.676

Ask | Find the recorded shrunken log2 fold change belonging to RRIRARPPRLPRPRPRPIPAPRP and report it.
Reply | 0.333

Ask | Quick check: shrunken log2 fold change of RRIRIRPPRLPRPRPRPYDEPRP ?
Reply | -0.338

Ask | Return reported shrunken log2 fold change; argument: RRIRWRPPRLPRPRPRPIFDPRP
Reply | 0.273

Ask | Which shrunken log2 fold change is reported for this sequence? RRIRRRPPRLPRPRPRPVSKPRP
Reply | 0.24

Ask | Fill blank: measured shrunken log2 fold change of the sequence RRIRARPPRLPRPRPRPRWSPRP is ____.
Reply | 0.53
